Cited source for all entries: ChEMBL document CHEMBL1201862

Measured EC50 of individual entries
# PROTOCOL TEXT: Luminescence Cell-Based Dose Response HTS to Identify Inhibitors of 5'UTR Stem-Loop Driven Prion Protein mRNA Translation in H4 Neuroglioblastoma Cells. [Related pubchem assays: 1827 (Project Summary), 1813 (Primary HTS)]
# Assay type: functional
The source made the active and inactive calls.
METRIC NAME: EC50

1) COc1ccc(-c2csc(/C(C#N)=C/Nc3cc4oc5ccccc5c4cc3OC)n2)cc1 = 91.7 µM (active)
2) Cc1cccc(-[n+]2c(-c3cccc(Br)c3)[nH]c3nc4ccccc4nc32)c1 = 13.7 µM (active)
3) CC(=C/c1ccccc1)/C=N/n1cnnc1 = 20.4 µM (active)
4) Oc1ccccc1/C=N/Nc1nccnc1Cl = 9.43 µM (active)
5) COc1ccc(C2=Nn3c(nnc3-c3ccccc3)SC2)cc1OC = > 120 µM (not active)

====

# STUDY SYSTEM: Cytochrome P450 2C19 (Homo sapiens, UniProt P33261)
# Sequence (P33261 whole entry): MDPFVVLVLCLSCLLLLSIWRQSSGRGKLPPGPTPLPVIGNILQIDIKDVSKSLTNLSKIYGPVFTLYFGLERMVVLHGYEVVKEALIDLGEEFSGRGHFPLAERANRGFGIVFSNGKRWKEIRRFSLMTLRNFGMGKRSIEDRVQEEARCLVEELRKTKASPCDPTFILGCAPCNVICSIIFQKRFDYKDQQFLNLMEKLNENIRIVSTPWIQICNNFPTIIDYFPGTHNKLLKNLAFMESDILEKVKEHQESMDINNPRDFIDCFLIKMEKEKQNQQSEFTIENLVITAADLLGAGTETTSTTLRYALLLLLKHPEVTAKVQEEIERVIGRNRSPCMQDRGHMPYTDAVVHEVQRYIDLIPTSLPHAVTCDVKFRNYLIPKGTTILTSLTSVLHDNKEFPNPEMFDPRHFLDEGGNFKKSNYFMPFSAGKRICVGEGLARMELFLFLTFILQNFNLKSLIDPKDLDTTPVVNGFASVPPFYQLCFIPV
# PROTOCOL TEXT: Cytochrome panel assay with activity outcomes. Panel member name: p450-cyp2c19 Compounds with AC50 equal or less than 10 uM are considered active
# Type: functional
The entries below are paired with their reported AC50.
METRIC NAME: AC50

1. Cc1ccc(-c2nc3ccccc3c(=O)n2-c2ncccc2C)cc1 = 28.2 µM (inconclusive)
2. CC(=O)N1CCN(c2ccc(NC(=O)c3ccc(C)cc3)cc2)CC1 = 15.8 µM (inconclusive)
3. COC(=O)COc1ccc2c(-c3cccc([N+](=O)[O-])c3)cc(=O)oc2c1 = 0.251 µM (inconclusive)
4. C/C(=N\O)c1ccc2[nH]ccc2c1 = 11.2 µM (inconclusive)
5. COC(=O)C1C(O)=C(/C=N/Cc2ccccc2)C(=O)CC1(C)C (stereo not drawn) = 39.8 µM (inconclusive)
6. O=C(c1sc2ccccc2c1Cl)N1CCN(c2ccc(F)cc2)CC1 = 0.0891 µM (inconclusive)
7. CC1(C)CC(=O)C2=C(C1)N(Cc1cccnc1)C(=O)C2(NC(=O)c1cccnc1)C(F)(F)F (stereo not drawn) = 15.8 µM (inconclusive)
8. COc1ccc(Cc2nnc(O)c3ccccc23)cc1OC = 31.6 µM (inconclusive)

====

IC50 reference
# STUDY SYSTEM: Leucine aminopeptidase (Plasmodium falciparum 3D7)
# Sequence (Q8IL11 whole entry): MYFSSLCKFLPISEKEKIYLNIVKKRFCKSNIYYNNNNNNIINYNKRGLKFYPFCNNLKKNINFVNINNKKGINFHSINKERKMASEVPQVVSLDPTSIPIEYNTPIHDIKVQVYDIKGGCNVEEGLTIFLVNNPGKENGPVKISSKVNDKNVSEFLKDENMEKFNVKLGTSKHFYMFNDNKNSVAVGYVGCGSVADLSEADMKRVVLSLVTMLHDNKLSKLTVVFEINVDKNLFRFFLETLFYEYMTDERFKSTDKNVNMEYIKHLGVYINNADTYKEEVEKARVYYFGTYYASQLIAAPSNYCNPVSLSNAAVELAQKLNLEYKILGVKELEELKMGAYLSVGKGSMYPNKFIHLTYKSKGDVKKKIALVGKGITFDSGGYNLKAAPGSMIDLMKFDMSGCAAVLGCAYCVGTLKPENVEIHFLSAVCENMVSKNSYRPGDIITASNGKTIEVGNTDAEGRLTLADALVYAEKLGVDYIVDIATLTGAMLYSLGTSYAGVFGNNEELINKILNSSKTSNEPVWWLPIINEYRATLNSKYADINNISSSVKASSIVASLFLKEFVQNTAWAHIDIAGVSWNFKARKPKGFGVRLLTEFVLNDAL
# PROTOCOL TEXT: P. falciparum M17LAP inhibitors, primary screen, biochemical, fluorogenic H-Leu-NHMec substrate, 1536-well (AID 1619)
# Format: functional
Activity calls are given as the source filed them.
METRIC NAME: IC50

1. O=C(NNC(=O)C1CC2CCC1C2)c1sc2ccccc2c1Cl (stereo unspecified) = 68.1 µM (active)
2. CCOc1ccc(C(=O)CN2CCN(S(=O)(=O)c3ccc(OC)cc3)CC2)cc1 = 73.5 µM (active)
3. COc1cccc(NS(=O)(=O)c2ccc3c(c2)C2C=CCC2C(c2ccc(C(=O)O)cc2)N3)c1 (stereo unspecified) = 15.8 µM (active)
4. Cc1[nH]n(-c2ccccc2)c(=O)c1Sc1ccc(Cl)cc1 = 37.4 µM (active)
5. CC1(C(=O)O)CC(C)(C(=O)O)CC(C)(C(=O)O)C1 (stereo unspecified) = 58.7 µM (active)
6. COc1ccc(-n2c(SC)nc(O)c(Cc3ccccc3)c2=O)cc1 = 46 µM (active)

====

# PROTOCOL TEXT: cells
# Type: functional, cell-based
The source made the active and inactive calls.
METRIC NAME: EC50

1. COc1ccc(C(=O)N/N=C(\c2ccccc2)c2ccccn2)cc1 = 38.6 µM (active)
2. CCCC(=O)NC(c1ccc2c(c1)OCO2)c1cc(Cl)c2cccnc2c1O (centres undefined) = > 350 µM (not active)
3. c1cnc(N2CCN(c3ccc4ccccc4n3)CC2)nc1 = 11.9 µM (active)
4. N#Cc1ccccc1S(=O)(=O)N1CCN(c2cnccn2)CC1 = > 350 µM (not active)

====

# STUDY SYSTEM: Kappa-type opioid receptor (Homo sapiens)
# Sequence (P41145 whole entry): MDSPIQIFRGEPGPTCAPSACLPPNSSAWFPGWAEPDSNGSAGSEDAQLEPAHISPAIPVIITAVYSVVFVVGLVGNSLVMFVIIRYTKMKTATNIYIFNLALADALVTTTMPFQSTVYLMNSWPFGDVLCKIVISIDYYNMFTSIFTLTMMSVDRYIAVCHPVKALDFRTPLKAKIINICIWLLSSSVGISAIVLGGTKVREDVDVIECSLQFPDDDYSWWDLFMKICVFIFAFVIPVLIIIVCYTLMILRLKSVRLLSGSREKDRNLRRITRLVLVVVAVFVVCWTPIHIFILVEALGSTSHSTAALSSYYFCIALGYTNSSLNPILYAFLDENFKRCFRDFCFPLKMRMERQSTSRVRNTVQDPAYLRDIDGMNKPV
# Format: functional
pEC50: −log10 of the molar value.
METRIC NAME: pEC50

1) Cc1ccc(Cl)cc1NC(=S)N(Cc1cccs1)C1CCCC1 = 4.85

====

Documented EC50 across a set of compounds
# STUDY SYSTEM: Zinc finger protein mex-5 (Caenorhabditis elegans)
# Sequence (Q9XUB2 whole entry): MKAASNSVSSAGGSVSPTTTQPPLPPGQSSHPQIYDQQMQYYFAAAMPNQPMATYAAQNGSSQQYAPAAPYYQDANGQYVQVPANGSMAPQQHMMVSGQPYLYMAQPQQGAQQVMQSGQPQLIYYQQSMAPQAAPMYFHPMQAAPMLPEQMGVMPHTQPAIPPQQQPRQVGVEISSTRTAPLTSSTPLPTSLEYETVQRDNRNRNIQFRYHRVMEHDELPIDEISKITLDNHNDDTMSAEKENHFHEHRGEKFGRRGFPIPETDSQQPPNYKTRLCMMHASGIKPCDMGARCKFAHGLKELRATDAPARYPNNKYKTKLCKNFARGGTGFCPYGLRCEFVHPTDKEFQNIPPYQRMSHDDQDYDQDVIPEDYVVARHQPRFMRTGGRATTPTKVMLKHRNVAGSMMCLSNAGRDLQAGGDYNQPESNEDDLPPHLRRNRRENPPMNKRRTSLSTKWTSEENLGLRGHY
# PROTOCOL TEXT: potency of MEX-5 RNA-binding blockers – biochemical, C. elegans, fluorescence polarization, dose response (AID 1960)
Calls of active or inactive are those of the source.
METRIC NAME: EC50

1. CC1CCc2nn(CC(=O)NCCN3CCCCC3C)cc2C1 (configuration not stated) = > 300 µM (not active)
2. Cc1ccc(-n2c(=O)c(C#N)cc3c(=O)n4ccccc4nc32)cc1C = 55.8 µM (active)
3. COc1cc(OC)c(OC)cc1/C=C1\Oc2cc(OS(C)(=O)=O)ccc2C1=O = > 300 µM (not active)
4. Cc1ccc(NC(=O)Cn2c(=O)c(C)nc3ccccc32)cc1 = > 300 µM (not active)
5. Oc1ccc(-c2nc(-c3ccc(O)c(O)c3)cs2)cc1 = 20.8 µM (inconclusive)
6. COc1cc2c(cc1OC)-c1c(OC)c(OC)cc3ccnc(c13)C2=O = 0.834 µM (active)
7. O=C(NCCO)c1ccc2nc(-c3ccco3)c(-c3ccco3)nc2c1 = 17.5 µM (active)
8. CC(=O)Nc1ccc(/N=C/c2nc(-c3ccc(C)cc3)oc2O)cc1 = > 300 µM (inconclusive)
9. COc1ccccc1C(=O)Nc1ccnn1C1CCN(C(C)CSC)CC1 (configuration not stated) = > 300 µM (inconclusive)
10. CCOC(=O)C1Nc2ccc(Br)cc2C2C=CCC12 (configuration not stated) = 46 µM (active)
11. COc1cccc(NS(=O)(=O)c2ccc3c(c2)C2C=CCC2C(c2ccc(C(=O)O)cc2)N3)c1 (configuration not stated) = 12.5 µM (active)
12. CCN(CC)c1ccc2cc(C#N)c(=O)oc2c1 = 63 µM (inconclusive)

====

Entries annotated with measured IC50
# STUDY SYSTEM: Nonstructural protein 1 (Influenza A virus, UniProt Q194T2)
# Sequence (Q194T2 whole entry): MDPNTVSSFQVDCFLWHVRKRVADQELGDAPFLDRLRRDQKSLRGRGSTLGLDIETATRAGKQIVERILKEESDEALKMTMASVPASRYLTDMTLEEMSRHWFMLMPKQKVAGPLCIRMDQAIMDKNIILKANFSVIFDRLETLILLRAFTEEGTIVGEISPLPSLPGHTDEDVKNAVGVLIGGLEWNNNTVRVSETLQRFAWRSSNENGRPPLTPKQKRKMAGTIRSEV
# Assay type: functional, Influenza A virus (A/California/07/2009(H1N1))
Active and inactive are the calls of the source.
METRIC NAME: IC50

1) COc1cccc(NS(=O)(=O)c2ccc3c(c2)C2C=CCC2C(c2ccc(C(=O)O)cc2)N3)c1 (configuration not stated) = > 100 µM (active)
2) Oc1ccccc1/C=N/Nc1nccnc1Cl = 15.9 µM (active)
3) Nc1nonc1-n1nnc(C(=O)N/N=C/c2ccccc2O)c1CN1CCCC1 = 11.4 µM (active)
4) CCOc1ccccc1-c1c2cc(O)c(=O)cc-2oc2cc(O)c(O)cc12 = 28.1 µM (active)
5) O=C(CSc1n[nH]c(-c2ccccn2)n1)Nc1ccccc1F = 7.23 µM (active)
6) CC(=O)N1/C(=C/c2ccc(N(C)C)cc2)C(=O)c2ccccc21 = 16.7 µM (active)
7) O=C(CSc1nnc(-c2cccnc2)o1)Nc1nccs1 = 10.9 µM (active)

====

# PROTOCOL TEXT: NIH-3T3 fibroblast cytotoxicity, dose response, cytotoxicity control, cell-based, fluorescence, Alamar Blue, secondary assay (AID 2327);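 also: NIH-3T3 mouse fibroblasts cultured with fluconazole at 8 µg/mL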
# Type: functional
Calls of active or inactive are those of the source.
METRIC NAME: EC50

1. O=[N+]([O-])c1cccc(-c2cc(-c3cc(Br)ccc3O)n[nH]2)c1 = 19 µM (inconclusive)
2. Nc1nn2cc(-c3ccc(Br)cc3)nc2c2ccccc12 = 109 µM (active)
3. Oc1ccccc1/C=N/Nc1nccnc1Cl = 38.5 µM (active)
4. COc1ccc(C(=O)NNC(=S)NC(=O)c2cccc([N+](=O)[O-])c2)cc1 = > 160 µM (inactive)

====

# Test system: BJ
# PROTOCOL TEXT: BJ-TERT-LT-ST fibroblast viability loss – cell-based, RAS-independent, luminescence, dose response (AID 1935);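 also: BJ fibroblasts immortalized with TERT plus LT and ST oncogenes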
# Format: functional
# CONDITION NOTES: Homo sapiens
The source made the active and inactive calls.
Quick reference for EC50 among some molecules
METRIC NAME: EC50

1. COc1cccc(N=Nc2ccc(O)c3ncccc23)c1 = 8.08 µM (inconclusive)
2. CCCOc1ccc(C(=O)C(CCC(CNCC)C(=O)c2ccc(OCCC)cc2)CNCC)cc1 (stereo unspecified) = 2.72 µM (inconclusive)
3. Oc1ccc(-c2nc(-c3ccc(O)c(O)c3)cs2)cc1 = > 150 µM (not active)
4. O=[N+]([O-])c1ccc(N=Nc2c(Cl)cc(O)cc2Cl)cc1 = 5.78 µM (active)
5. C/C(=N\NC(=O)CC1N=C(Cc2ccccc2)NNC1=O)c1ccc(C)cc1 (stereo unspecified) = > 150 µM (inconclusive)
6. COC(=O)c1[nH]c2c(c1C)C(=O)CC(c1cccs1)C2 (stereo unspecified) = 0.873 µM (inconclusive)
